# System: Mustard beetles (PC) (Phaedon cochleariae Fab)
# Type: in vivo
# test settings: 1 µl acetone drop applied ventrally to adults; kill at 48 hours; NA = lack of detectable activity

chem smiles | PC (LD50)
C=CC(C)(C)C1=C(OC(=O)CCCCC)C(=O)c2ccccc2C1=O | c. 6.0 µg/insect
C=CC(C)(C)C1=C(OC(=O)C(C)C)C(=O)c2ccccc2C1=O | c. 6.0 µg/insect
C=CC(C)(C)C1=C(O)C(OC)(OC)c2ccccc2C1=O | c. 6.0 µg/insect
C=CC(C)(C)C1=C(OC(=O)CCCC)C(=O)c2ccccc2C1=O | 2.1 µg/insect
CC(C)(C)C1=C(O)C(=O)c2ccccc2C1=O | c. 6.0 µg/insect

---

# Test system: Mustard beetles (PC) (Phaedon cochleariae Fab)
# Assay type: in vivo
# test settings: 1 µl acetone drop applied ventrally to adults; kill at 48 hours; NA = lack of detectable activity
# Experimental: A one microlitre drop of an acetone solution of the test compound was applied ventrally to adult mustard beetles using a micro drop applicator. The treated insects were maintained for 48 hours after which time kill was assessed. Two replicates each of 20 to 25 mustard beetles were used at each dose level and 5 dose levels were treated comparably. LD50 values were calculated as for houseflies.
Overview of reported PC (LD50) across a group of molecules:
reported property: PC (LD50) (µg/insect)

molecule | measured target | limit sign | experimental result
CCCCCCCCCCCCC1=C(OC(C)=O)C(=O)c2ccccc2C1=O [Compound A, reference compound] | Mustard beetles (PC) (Phaedon cochleariae Fab) | = | 0.36
C=CC(C)(C)C1=C(OC(=O)CC)C(=O)c2ccccc2C1=O [Example 4] | Mustard beetles (PC) (Phaedon cochleariae Fab) | = | 3.9
C=CC(C)(C)C1=C(OCc2ccccc2)C(=O)c2ccccc2C1=O [Example 13] | Mustard beetles (PC) (Phaedon cochleariae Fab) | > | 20
C=CC(C)(C)C1=C(OC(=O)CF)C(=O)c2ccccc2C1=O [Example 9] | Mustard beetles (PC) (Phaedon cochleariae Fab) | = | 0.41
C=CC(C)(C)C1=C(OC(=O)CCC)C(=O)c2ccccc2C1=O [Example 5] | Mustard beetles (PC) (Phaedon cochleariae Fab) | = | 6.9

---

# measurement description: Mammalian toxicity, whole body LD50
# test settings: rat, in vivo; rats

chem smiles | LD50
CC1(C2=C(O)C(=O)c3ccccc3C2=O)CCCCC1 | 2790 mg/kg

---

Overview of reported % inhibition of growth in colony diameter in agar plates, Activity at 100 mg 1^-1 across a group of compounds:
# Tested on: Pyricularia oryzae (=Magnaporthe grisea)
# Assay type: cell-based
# test settings: P. oryzae; 100 mg 1^-1; 7 days
reported property: % inhibition of growth in colony diameter in agar plates, Activity at 100 mg 1^-1 (%)

compound | units text | experimental result
CC1(C2=C(O)C(=O)c3ccccc3C2=O)CCCCC1 [Example 25] | % | 94
CCC(C)(C)C1=C(OC(C)=O)C(=O)c2ccccc2C1=O [Example 2] | % | 89
CCC(C)(C)C1=C(O)C(=O)c2ccccc2C1=O [Example 1] | % | 100
CC(C)(C)C1=C(O)C(=O)c2ccccc2C1=O [Example 3] | % | 100

---

Overview of reported mortality at 250 ppm across a group of molecules:
# System: Myzus persicae, susceptible strain (US1L)
# measurement description: Aphid dip test, susceptible strain
# Assay type: in vivo
# test settings: strain S, 250 PPM, read-out: % mortality corrected for control data
# Protocol: Activity against resistant (R) and susceptible (S) strains of aphid (Myzus persicae) was assessed using the following method. […] Tubes containing aphids were dipped into insecticide solutions for 10 seconds, dried on blotting paper, and then inverted and tapped to cause treated aphids to fall to the unimmersed end of each tube. […] Mortality was assessed at 24, 48 and 72 hours. […]
reported property: mortality at 250 ppm

chem smiles | experimental result
CCC(C)(C)C1=C(OC(C)=O)C(=O)c2ccccc2C1=O | 27%
CCC(C)(C)C1=C(O)C(=O)c2ccccc2C1=O | 26%
CC1(C2=C(O)C(=O)c3ccccc3C2=O)CCCCC1 | 67%
CC(C)(C)C1=C(O)C(=O)c2ccccc2C1=O | 87%
